# reported TGI; entries follow
- Test system: MCF7 breast
- Test description: NCI tumour cell line growth inhibition, 48 h

Solved cases (5 shown):
molecule=C(=N\Nc1nnn(Cc2ccccc2)n1)/c1ccccc1 assay_system="MCF7 breast" observable=TGI meas_value="> 64.2 µM"
molecule=Cc1ccc(NC(=O)c2cc(S(=O)(=O)N3C(=O)NC(=O)NS3(=O)=O)c(S)cc2Cl)cc1 assay_system="MCF7 breast" observable=TGI meas_value="> 100 µM"
molecule="CC12CCCC3(CC(=O)C(C)(C)C3C(=O)C1)C2 (stereo not given)" assay_system="MCF7 breast" observable=TGI meas_value="> 100 µM"
molecule=COc1cc2c(cc1OC)-c1cc3ccccc3c(=O)n1CC2 assay_system="MCF7 breast" observable=TGI meas_value="> 100 µM"
molecule=O=S(=O)(NCCCNc1nccc(-c2c(-c3ccc(F)cc3)nc3sccn23)n1)c1ccc2ccccc2c1 assay_system="MCF7 breast" observable=TGI meas_value="> 100 µM"

Recall and state the measured TGI for N#CNC(N)=Nc1ccc(Cl)cc1 .
> 100 µM

Item CCOP(=O)(/C=C\n1ccc(N)nc1=O)OCC : provide TGI
> 100 µM

Note down TGI recorded for CC(=O)OC1C(COC(=O)c2ccccc2)OC(Nc2ncc(-c3ccc(Br)cc3)s2)C(OC(=O)c2ccccc2)C1OC(=O)c1ccccc1 (stereo not given)
> 100 µM

Tell us which TGI value is on record for Cn1c2ccccc2c(=O)c2c(O)cc3c(c21)C=CC1(CCCCC1)O3
> 10 µM

In one line, give reported TGI of the entry COc1cc(NC(C)=O)ccc1C(=O)NN1C(=O)/C(=C/c2ccco2)N=C1c1ccccc1 .
> 50 µM

====

# TGI values compiled below
- Tested on: U251 CNS
- Test description: NCI tumour cell line growth inhibition, 48 h

The following compounds have reported results that may help.
compound=CCOP(=O)(/C=C\n1ccc(N)nc1=O)OCC assay_system="U251 CNS" observable=TGI meas_value="> 100 µM"
compound=Oc1ccccc1-c1nn(CNc2ccccc2Cl)c(=S)o1 assay_system="U251 CNS" observable=TGI meas_value="> 100 µM"
compound=COc1ccc2[nH]c3c(c2c1)[C@H](C)C[C@@H]1C(=O)N(c2ccccc2)C(=O)[C@H]31 assay_system="U251 CNS" observable=TGI meas_value="32.4 µM"
compound=C[n+]1c(-c2ccc(/C=C/C=N\NC(=O)c3ccc(C(=O)N/N=C\C=C\c4ccc(-c5cn6ccccc6[n+]5C)cc4)cc3)cc2)cn2ccccc21 assay_system="U251 CNS" observable=TGI meas_value="> 100 µM"
compound="CC(=O)OCC1OC(N2C(=O)C(=O)c3ccccc32)C(OC(C)=O)C(OC(C)=O)C1OC(C)=O (configuration not stated)" assay_system="U251 CNS" observable=TGI meas_value="> 100 µM"

Consider the compound CC(NC(=O)N(C)C)NC(=O)N(C)C . State its measured TGI.
> 10 µM

Entry CO[C@@H]1O[C@H](C(=O)c2ccccc2)[C@H]2OC(C)(C)O[C@@H]12 needs its TGI filled in; supply it.
> 100 µM

Hello, please tell me recorded TGI for this one: C=C(C)C1C/C=C(/C)CCCC2(CCC3=C(CC(C(=C)C)C/C=C(/C)CCC3)O2)C(=O)C1 (configuration not stated)
> 100 µM

Assign TGI to the following record: CN(C)CCC(=O)/C=C\c1ccccc1
31.6 µM

Provide only the value of recorded TGI for C=Cc1ccccc1C1(O)C=CC(OC)(OC)C=C1
12.7 µM

Return reported TGI. Input compound: CC(C)(C)c1cc(C(=O)/C=C/c2ccc3c(c2)OCO3)cc(C(C)(C)C)c1O
19.3 µM

State its TGI: COC(=O)C(/C(=N\O)C(=O)Nc1cccc(Cl)c1C)c1cnc2ccccc2n1 (configuration not stated)
> 100 µM

Answer with the recorded TGI of CSC1=Nc2ccccc2N=C(c2ccc(Cl)cc2)C1 only.
> 100 µM
